Where these numbers come from: PubChem BioAssay AID1508591

Conditions: rat; liver microsomes; pH 7.4; 15.0 min; 1.0 µM
recordedEndpoint: half-life

State the recorded half-life for this entry: "COc1ccc(NC(=O)CCCc2nnc3n(CCC(C)C)c(=O)c4sccc4n23)cc1Cl"
2.96 min

# repeat for "COC(=O)C1=C(C)NC(C)=C(C(=O)O[C@@H]2CCCN(Cc3ccccc3)C2)[C@@H]1c1cccc([N+](=O)[O-])c1"
1.3 min

Field entry: "N#Cc1ccc(N2N=C3c4ccc(C(=O)O)cc4CC[C@@H]3[C@@H]2C2CCCC2)cc1Cl"
> 30 min

Please answer likewise for "C[C@]1(CO)CN(c2cc(C(=O)Nc3ccc4c(c3)-c3c(c(C(N)=O)nn3-c3ccc(F)cc3)CC4)c(Cl)cn2)C[C@@]1(C)CO"
23.2 min

Likewise for "O=S(=O)(Nc1ccc(S(=O)(=O)Nc2nccs2)cc1)c1ccc2ccccc2c1" ?
> 30 min

Quick one: C[N+]1([O-])[C@@H]2CC[C@H]1CC(OC(=O)C(CO)c1ccccc1)C2 (some centres undefined)
> 30 min

Moving on to Nc1nc2c(s1)C(c1ccc(Br)cc1)CC(=O)N2 (centres undefined)
23.8 min

Now give it for "O=C(Nc1ncc(Cc2ccc(C(F)(F)F)cc2)s1)c1cccc(-c2ccccc2)c1" too.
> 30 min

Likewise for "Nc1scc2c(C(=O)O)nn(-c3ccccc3)c(=O)c12" ?
> 30 min

====

So I've got a bunch of compounds here, and I need their log10 half-life values.
Settings: rat; liver microsomes; pH 7.4; 15.0 min; 1.0 µM
# log10 transformed; quantity=half-life; unit=min

Sample "Cc1ccccc1C(=O)N1CCc2cc(-c3cccc(NC(=O)Cc4ccc5c(c4)OCO5)c3)ccc21" — what was its log10 half-life?
0.99

Same lookup for "CN1CCc2cc3c(cc2C1)OCO3" , please.
0.00

// query: "OCc1ccc(-c2ccc(-c3ccc(CO)s3)o2)s1"
0.79

And "COc1ccc2c(ccn2CCC(=O)Nc2ccc3c(c2)C(=O)N2CCC[C@H]2C(=O)N3)c1" ?
0.96

Repeat with "CCNC(=O)c1noc(-c2cc(C(C)C)c(O)cc2O)c1-c1ccc(CN2CCOCC2)cc1"
0.67

// next record "Cc1ccc(-n2nc(C)c3c(-c4ccc(O)c(O)c4)c(C#N)c(N)nc32)cc1C"
1.18

Now try "FC(F)(F)c1ccccc1-c1nc(NCc2ccccc2)c2ccccc2n1" .
0.44

Consider next the compound Ic1ccccc1CNC1C2CCN(CC2)C1C(c1ccccc1)c1ccccc1 (stereo unspecified) in the same way.
0.93

Another compound to look at: "COc1cccc(CNc2ccc(S(=O)(=O)Nc3ccc(-c4ccccc4)cc3)cc2)c1O"
0.43

====

Details: rat; liver microsomes; pH 7.4; 15.0 min; 1.0 µM
recordedEndpoint: half-life (min)
Entry rule: numbers only, all in min.

// query half-life value for entry "CC(C)(C)NS(=O)(=O)c1ccc(-c2ccc3[nH]nc(N)c3c2)cc1"
17.2

Next entry: "CCOc1ccc(Nc2nc(C)c(NC(=O)c3ccc(C)cc3)c(Nc3ccc(OCC)cc3)n2)cc1"
8.86

Next up: "O=S(=O)(Nc1cccc2ccccc12)c1ccc(NCc2cccc(Cl)c2O)cc1"
4.3

Repeat for the following molecule: "Oc1ccccc1CN1CCNc2cc(Nc3ccccc3)ncc2C1"
1.79

"COc1ccc(-n2nc(C3CCN([S+](=O)([O-])c4cccc(C(F)(F)F)c4)CC3)[nH]c2=O)cc1" , same question.
15

Continue with "COC(=O)Nc1nc2ccc(Sc3ccccc3)cc2[nH]1"
18.4
